tested on: SKOV-3 cells; experiment: Inhibitory effect of compounds on SKOV-3 cell proliferation; type: cell-based, Human; conditions: Homo sapiens, SK-OV-3, 72 h, read-out: IC50, inhibitory activity on SKOV-3 cell proliferation
property label: pIC50
pIC50 here is simply -log10 of the concentration when that concentration is written in mol/L.

compound: CC[C@@]1(O)C(=O)OCc2c1cc1n(c2=O)Cc2c-1nc1cc(Cl)c(C)c3c1c2[C@@H](NC(=O)CO)CC3 [Example 3 (2-1-A)]
pIC50: 8.15
//
compound: CC[C@@]1(O)C(=O)OCc2c1cc1n(c2=O)Cc2c-1nc1cc(Cl)c(C)c3c1c2[C@@H](NC(=O)C1(O)CC1)CC3 [Example 7 (2-20-A)]
pIC50: 8.17

Item: CC[C@@]1(O)C(=O)OCc2c1cc1n(c2=O)Cc2c-1nc1cc(Cl)c(C)c3c1c2[C@H](NC[C@H](C)O)CC3 [Example 4 (2-7-B)] | pIC50: 8.02

---

Readings of IC50 for the listed compounds
tested on: NCI-H358 cells; experiment: Inhibitory effect of compounds on NCI-H358 cell proliferation; type: cell-based, Human; settings: NCI-H358 human non-small cell lung cancer cells, 72 h incubation, Cell Counting-Lite 2.0; read-out: IC50, inhibitory activity on NCI-H358 cell proliferation
Expressed in nM, but write only the number.

mol: CC[C@@]1(O)C(=O)OCc2c1cc1n(c2=O)Cc2c-1nc1cc(F)c(Cl)c3c1c2[C@H](NC(=O)C1(O)CC1)CC3
uom: nM
IC50: 37.3
//
mol: CC[C@@]1(O)C(=O)OCc2c1cc1n(c2=O)Cc2c-1nc1cc(F)c(C3CC3)c3c1c2[C@H](NC(=O)CO)CC3
uom: nM
IC50: 61.4

Proceed to the following item.
Item: CC[C@@]1(O)C(=O)OCc2c1cc1n(c2=O)Cc2c-1nc1cc(Cl)c(C)c3c1c2[C@H](NC[C@@H](C)O)CC3 | IC50: 69.1

---

system: HCC70 cells; assay: Inhibitory effect of compounds on HCC70 cell proliferation; type: cell-based, Human; conditions: Homo sapiens, HCC70, 72 h, read-out: IC50, inhibitory activity on HCC70 cell proliferation
property label: IC50
Record the result as number plus unit.

compound: CC[C@@]1(O)C(=O)OCc2c1cc1n(c2=O)Cc2c-1nc1cc(Cl)c(C)c3c1c2[C@@H](NC(=O)[C@@H](O)C1CC1)CC3 [Example 5 (2-12-A)]
test target: HCC70 cells
IC50: 171 nM

compound: CC[C@@]1(O)C(=O)OCc2c1cc1n(c2=O)Cc2c-1nc1cc(Cl)c(C)c3c1c2[C@@H](NC(=O)C1(O)CC1)CC3 [Example 7 (2-20-A)]
test target: HCC70 cells
IC50: 105 nM

Item: CC[C@@]1(O)C(=O)OCc2c1cc1n(c2=O)Cc2c-1nc1cc(Cl)c(C)c3c1c2[C@H](NC(=O)[C@@H](O)C1CC1)CC3 [Example 5 (2-12-B)] | IC50: 176 nM
